Source of measurements: PubChem BioAssay (NCI)

Overview of reported TGI across a group of compounds:
- Tested on: CAKI-1 renal
- method_summary: NCI tumour cell line growth inhibition, 48 h

Would you please look over these solved cases?
> print(dat)
                                   compound  endpoint.name  observed.measurement
1  Cc1c2cc[n+](C)cc2c(C)c2c1[nH]c1ccc(Cl)cc12            TGI               53.4 µM
2  CCCC(=O)Nc1ccc2c(c1)CN1C(=O)c3ccccc3C1=N2            TGI              > 100 µM

Note to self: TGI recorded for `c1ccc2sc(C3(N4CCC5(CC4)OCCO5)CCCCC3)cc2c1` was > 100 µM

Note to self: TGI recorded for `CCCCCNC(=O)c1c(O)[nH]c(=S)[nH]c1=O` was > 100 µM

Note to self: TGI recorded for `O=C(CN1C(=O)S/C(=C\C(Cl)=C\c2ccccc2)C1=O)NCCc1ccc(O)cc1` was 3.76 µM

###

- Tested on: A498 renal
- method_summary: NCI tumour cell line growth inhibition, 48 h
endpoint_name: TGI

Would you please look over these solved cases?
> print(dat)
                                   compound  experimental.system  observed.measurement
1    O=C1OC(c2ccccc2)=N/C1=C\c1cc(Cl)ccc1Cl           A498 renal              > 100 µM
2  O=C1C(=c2cc3c(c4ccccc24)=NC24CCCCC2C(c2ccccc2)C=C(c2ccccc2)N34)C(=O)c2ccccc21 (centres undefined)           A498 renal              > 100 µM
3  O=C(NC1CCCCC1)NS(=O)(=O)c1ccc(-n2nc3c(c2-c2ccc(Cl)cc2)Cc2ccccc2-3)cc1           A498 renal               40.2 µM
4  COC(=O)/C(=N\NC(=S)NN)C(C(=O)OC)C(=O)C(=O)Nc1cccc(C(F)(F)F)c1 (centres undefined)           A498 renal              > 100 µM
5     C/C=C1\CNC1C(=O)O (centres undefined)           A498 renal              > 100 µM

Note to self: TGI recorded for CC(=O)NC1C(OC2C(CO)OC(OCC3OC(n4ccc(N)nc4=O)C(O)C3O)C(NC(C)=O)C2O)OC(CO)C(O)C1O (centres undefined) was > 100 µM

Note to self: TGI recorded for `CC1=NN(c2cccc(Cl)c2)C(=N/c2nc3ccccc3s2)/C1=C\c1cccs1` was 82.5 µM

Note to self: TGI recorded for `Cc1sc(NC2=NC(=O)/C(=C\c3ccccc3)S2)nc1-c1nc(NC2=NC(=O)/C(=C\c3ccccc3)S2)sc1C` was 30.7 µM

Note to self: TGI recorded for `C/C=N\n1c(C)c(C#N)c(C#N)c1N` was > 100 µM

###

- Test system: SF-268 CNS
- method_summary: NCI tumour cell line growth inhibition, 48 h
Values of TGI greater than or equal to 50 µM map to yes (1); values below map to no (0).

Recorded results for 2 compounds are shown here.
> print(dat)
                                   compound  discrete.label
1      CCOC(=O)c1c(-c2ccccc2)nc2c(OC)nccn12         yes (1)
2  COc1cc(C2CC(c3ccccc3)=NN2C(C)=O)cc(OC)c1OC (stereo not given)         yes (1)

Task item: Given `N#Cc1cc(N(CCCl)CCCl)c([N+](=O)[O-])cc1[N+](=O)[O-]` , state whether its TGI is at least 50 µM.
Reply: yes (1)

Task item: Given C=C1CC2CC(=O)C(O)C(C1)C2 (stereo not given) , state whether its TGI is at least 50 µM.
Reply: yes (1)

Task item: Given O=C(Nc1cccc([N+](=O)[O-])c1)C(=O)C(C(=O)c1ccccc1F)C1OC(=O)C2C=CC=CC21 (stereo not given) , state whether its TGI is at least 50 µM.
Reply: yes (1)

Task item: Given `COc1ccc(-c2nc(N3CCOCC3)c3sc(CN(C)c4ncc(C(=O)NO)cn4)cc3n2)cn1` , state whether its TGI is at least 50 µM.
Reply: no (0)

Task item: Given `Cc1sc(Nc2ccccc2[N+](=O)[O-])c(C#N)c1C` , state whether its TGI is at least 50 µM.
Reply: yes (1)

Task item: Given `CC(C)[Si](OC1=C(C(=O)N(C)c2ccccc2Cl)CCCCC1)(C(C)C)C(C)C` , state whether its TGI is at least 50 µM.
Reply: yes (1)

Task item: Given `COc1ccc(OC)c(/C=C2\COc3ccc(O)c(O)c3C2=O)c1` , state whether its TGI is at least 50 µM.
Reply: no (0)

###

- System: SK-MEL-2 melanoma
- method_summary: NCI tumour cell line growth inhibition, 48 h
endpoint_name: GI50

Would you please look over these solved cases?
> print(dat)
                           structure.smiles  experimental.system  endpoint.name  observed.measurement
1  O=C(CN1C(=O)S/C(=C\C(Cl)=C\c2ccccc2)C1=O)NCCc1ccc(O)cc1    SK-MEL-2 melanoma           GI50               2640 nM
2                Nc1ccc(-c2nc3ccccc3o2)cc1S    SK-MEL-2 melanoma           GI50              42400 nM
3  Cc1[nH]nc2ccc3nc(-c4ccc5[nH]ncc5c4)c4c(c3c12)CCCC4    SK-MEL-2 melanoma           GI50                476 nM
4  CC1(C)N=C(N)N=C(N)N1c1cccc(CCCCOc2ccccc2)c1    SK-MEL-2 melanoma           GI50               1610 nM

Note to self: GI50 recorded for `O=C(NCCNc1nccc(-c2c(-c3cccc(O)c3)nc3sccn23)n1)Nc1cccc(C(F)(F)F)c1` was 2800 nM

###

- System: ACHN renal
- method_summary: NCI tumour cell line growth inhibition, 48 h
Overview of reported GI50 across a group of compounds:

Note to self: GI50 recorded for CCC[CH2][Sn]1([CH2]CCC)[O]CC(CN2CCOCC2)[O]1 (centres undefined) was 3.02 µM

Note to self: GI50 recorded for `S=C(c1ccc2c(c1)OCO2)N1CCN(c2cccc(Cl)c2)CC1` was 13.4 µM

Note to self: GI50 recorded for `C=C(C)[C@@H]1CC[C@]2(C(=O)O)CC[C@]3(C)[C@H](CC[C@@H]4[C@@]5(C)C/C(=C/c6ccc(OC)cc6)C(=O)C(C)(C)[C@@H]5CC[C@]43C)[C@@H]12` was 2.77 µM

Note to self: GI50 recorded for `C/C(=C\CCc1ccsc1)CC/C=C(\C)CCCN1CCC(CO)CC1` was 3.02 µM

Note to self: GI50 recorded for OCC1OC(n2cnc3c2NC=NC[C@H]3O)CC1O (some centres undefined) was > 588 µM

Note to self: GI50 recorded for `COc1cc(-n2cnc(-c3ccc(Cl)cc3)c2)cc(OC)c1OC` was 19.8 µM

Note to self: GI50 recorded for `Cc1sc(NC2=NC(=O)/C(=C\c3ccccc3)S2)nc1-c1nc(NC2=NC(=O)/C(=C\c3ccccc3)S2)sc1C` was 12.4 µM

Note to self: GI50 recorded for `Oc1ccc(-c2cn3cc(Cl)sc3n2)cc1` was 3.98 µM

Note to self: GI50 recorded for CC1OC(n2c3ccccc3c3c4c(c5c6ccccc6[nH]c5c32)C(=O)N(CCN2CCOCC2)C4=O)CC(O)C1O (centres undefined) was 1.51 µM

###

- Test system: HCC-2998 colon
- method_summary: NCI tumour cell line growth inhibition, 48 h
Where a SMILES comes first, the peptide text is derived from it.
endpoint_name: TGI

compound	observed_measurement
CC(C)n1c(=O)n(C)c2cnc3cc(F)c(-c4ccc(OCCCN5CCCCC5)nc4)cc3c21	> 100 µM
COC(=O)CS(=O)c1ccccc1 (configuration not stated)	> 100 µM
Cc1sc(Nc2ccccc2[N+](=O)[O-])c(C#N)c1C	> 100 µM

Note to self: TGI recorded for `CCOC(=O)NC(=O)c1cn(CCCOC(=O)NCCCCCCNC(=O)OCCCn2cc(C(=O)NC(=O)OCC)c(=O)[nH]c2=O)c(=O)[nH]c1=O` was > 100 µM

Note to self: TGI recorded for COc1cc(C2S/C(=C/c3ccccc3)C(=O)N2c2cc(Cl)c(Cl)cc2Cl)cc(OC)c1OC (configuration not stated) was > 100 µM

Note to self: TGI recorded for `COc1ccc(C(=O)CC(=O)C(=O)Nc2ccc(C)c(C)c2)cc1` was > 100 µM

Note to self: TGI recorded for `O=C(Nc1ccc(OCc2nnc(-c3ccccc3)o2)c(F)c1)Nc1ccc(Cl)c(C(F)(F)F)c1` was 7.83 µM

Note to self: TGI recorded for CNC(=O)CNC(=O)C(NC(=O)CNC(=O)C1CCCN1C(=O)C(C)NC(=O)C(NC(C)=O)C(C)C)C(C)C (configuration not stated) (Ac-VAPGVG-NHMe; configuration not given here) was > 100 µM

Note to self: TGI recorded for CCOC(=O)C(=O)Nc1c(CC)cccc1C(C)CC (configuration not stated) was > 100 µM

Note to self: TGI recorded for CC1OC(OC2C(CO)OC(O[C@H]3CC[C@@]4(C)C(=CC[C@H]5[C@@H]6C[C@@H]7O[C@](O)(CC[C@H](C)COC8OC(CO)C(O)C(O)C8O)[C@@H](C)[C@@H]7[C@@]6(C)CC[C@@H]54)C3)C(OC3OC(C)C(O)C(O)C3O)C2O)C(O)C(O)C1O (some centres not stated) was > 37.9 µM

Note to self: TGI recorded for CC(=O)OC1CC2C(C)(C)C(=O)C=C[C@]2(C)C2CCC3(C)C(c4ccoc4)[C@@H](O)[C@H]4O[C@]43[C@]12C (some centres not stated) was 29.6 µM

Note to self: TGI recorded for CCOC1(OCC)N=C(N)C2(C#N)C3(C(=O)N(C(C)C)N=C3C)C12C#N (configuration not stated) was > 100 µM

Note to self: TGI recorded for CC(C)[Si](OC1=C(c2ccccc2)C(NC(=O)/C=C/c2ccc([N+](=O)[O-])cc2)CCC1)(C(C)C)C(C)C (configuration not stated) was > 100 µM

Note to self: TGI recorded for `COc1ccc2c(c1)/C(=C\c1c(Cl)n(C)c3ccccc13)C(=O)N2` was 1.08 µM

Note to self: TGI recorded for CC1OC(n2c3ccccc3c3c4c(c5c6ccccc6[nH]c5c32)C(=O)N(CCN2CCOCC2)C4=O)CC(O)C1O (configuration not stated) was 14 µM

Note to self: TGI recorded for `COC1=CC(c2ccc[nH]2)=N/C1=C\c1[nH]c(C)c(C(C)=O)c1C` was > 100 µM

Note to self: TGI recorded for CCC[CH2][Sn]1([CH2]CCC)[O]CC(CN2CCOCC2)[O]1 (configuration not stated) was 21.6 µM
